Tested on: AtT20 cells
Assay Overview: Nuclei staining (Hoechst 33342 dye), screen of kinase inhibitor library
Format: cell-based, murine
Reported Conditions: Mus musculus, 72 h; 0.1 µM; AtT20 cells, 3 days
Measured inhibition at 0.1 µM of individual entries
Quick note: number first, unit second.

Some molecules with known inhibition at 0.1 µM results, for comparison:
Hi! What's the reported inhibition at 0.1 µM for COc1ccc(-c2ccc3ncc4c(c3c2)n(-c2ccc(N3CCNCC3)c(C(F)(F)F)c2)c(=O)n4C)cn1 on AtT20 cells?
94.3%

Hi! What's the reported inhibition at 0.1 µM for CCc1cnn2c(NCc3ccc[n+]([O-])c3)cc(N3CCCC[C@H]3CCO)nc12 [Dinaciclib (SCH727965)] on AtT20 cells?
92%

Hi! What's the reported inhibition at 0.1 µM for COc1ccc(-c2nc(N3CCOCC3)c3sc(CN(C)c4ncc(C(=O)NO)cn4)cc3n2)cn1 on AtT20 cells?
90.1%

Now for a further molecule.
Hi! What's the reported inhibition at 0.1 µM for Cc1nc(Nc2n[nH]c3c2CN(C(=O)N[C@H](CN(C)C)c2ccccc2)C3(C)C)c2sccc2n1 on AtT20 cells?
91.5%
